- procedure.text: UV-Vis absorption and fluorescence emission spectra of amino acids 13a–e
- Type: physicochemical
- test.conditions: Water
Please go through the items and note down their ε (molar attenuation coefficient).

// query Param item = Cl.N[C@@H](Cc1ccc2[nH]c3ccc4ccccc4c3c2c1)C(=O)O [amino acid 13c] ; retrieve measured ε (molar attenuation coefficient).
// result 10 900 cm^−1 M^−1

// query State the recorded ε (molar attenuation coefficient) for this entry: Cl.N[C@@H](Cc1ccc2[nH]c3ccccc3c2c1)C(=O)O [amino acid 13a]
// result 8800 cm⁻¹ M⁻¹

// query Fill in: ε (molar attenuation coefficient) of Cl.N[C@@H](Cc1ccc2[nH]c3cc(C(F)(F)F)ccc3c2c1)C(=O)O [amino acid 13e] is ___
// result 14 000 cm^−1 M^−1

// query Could you share which ε (molar attenuation coefficient) value was measured for COc1ccc2c(c1)[nH]c1ccc(C[C@H](N)C(=O)O)cc12.Cl [amino acid 13b] ?
// result 12 100 cm^−1 M^−1

* * *

Exercise: state measured Brightness for each of the compounds provided.
- procedure.text: Fluorescence quantum yield (comparative method, anthracene and L-tryptophan standards) and brightness
- Assay type: physicochemical
- test.conditions: MeOH

// query Recorded Brightness of Cl.N[C@@H](Cc1ccc2[nH]c3ccccc3c2c1)C(=O)O [amino acid 13a] , please.
// result 5120 cm⁻¹ M⁻¹

// query Fill in: Brightness of Cl.N[C@@H](Cc1ccc2[nH]c3ccc4ccccc4c3c2c1)C(=O)O [amino acid 13c] is ___
// result 12 240 cm^−1 M^−1

// query Suppose we examine the compound Cl.N[C@@H](Cc1ccc2[nH]c3cc(C(F)(F)F)ccc3c2c1)C(=O)O [amino acid 13e] ; what Brightness value has been reported?
// result 700 cm⁻¹ M⁻¹

// query What does the record list as Brightness for COc1ccc2c(c1)[nH]c1ccc(C[C@H](N)C(=O)O)cc12.Cl [amino acid 13b] ?
// result 4450 cm⁻¹ M⁻¹

* * *

- procedure.text: Fluorescence quantum yield (comparative method, anthracene and L-tryptophan standards) and brightness
- Type: physicochemical
- test.conditions: Water
measured.parameter: Brightness (cm⁻¹ M⁻¹)
Please reply with the bare figure in cm⁻¹ M⁻¹ and do not write the unit itself.

// query Param item = COc1ccc2c(c1)[nH]c1ccc(C[C@H](N)C(=O)O)cc12.Cl [amino acid 13b] ; retrieve measured Brightness.
// result 5200

// query Data request, read-out Brightness, for Cl.N[C@@H](Cc1ccc2[nH]c3ccc4ccccc4c3c2c1)C(=O)O [amino acid 13c]
// result 6430

// query Which Brightness is reported for this compound? Cl.N[C@@H](Cc1ccc2[nH]c3cc(C(F)(F)F)ccc3c2c1)C(=O)O [amino acid 13e]
// result 3360

// query Would you kindly share the measured Brightness for Cl.N[C@@H](Cc1ccc2[nH]c3ccccc3c2c1)C(=O)O [amino acid 13a] ?
// result 2460

* * *

- procedure.text: Fluorescence quantum yield (comparative method, anthracene and L-tryptophan standards) and brightness
- Type: physicochemical
- test.conditions: MeOH; anthracene and L-tryptophan as standards; five concentrations, absorption below 0.1
measured.parameter: Φ F (quantum yield)

// query I would be grateful if you could share the reported Φ F (quantum yield) for COc1ccc2c(c1)[nH]c1ccc(C[C@H](N)C(=O)O)cc12.Cl [amino acid 13b] .
// result 0.35

// query Record request: Φ F (quantum yield) value, item Cl.N[C@@H](Cc1ccc2[nH]c3cc(C(F)(F)F)ccc3c2c1)C(=O)O [amino acid 13e]
// result 0.06

// query Which Φ F (quantum yield) value belongs to Cl.N[C@@H](Cc1ccc2[nH]c3ccc4ccccc4c3c2c1)C(=O)O [amino acid 13c] ?
// result 0.76

// query Form field: reported Φ F (quantum yield) of Cl.N[C@@H](Cc1ccc2[nH]c3ccccc3c2c1)C(=O)O [amino acid 13a]
// result 0.31

* * *

Provide the reported λ Em of each item.
- procedure.text: UV-Vis absorption and fluorescence emission spectra of amino acids 13a–e
- Assay type: physicochemical
- test.conditions: Water; 5 μM; fluorescence
- Method: Next, the photophysical properties of amino acids 13a–13e were measured.[22,23] As it was important to identify an amino acid that could be used as a probe for different applications, the photophysical properties were assessed in both an organic solvent (methanol) and water (Table 2). 5. Photophysical Data for a-Amino Acids 13a–e Absorption and emission data were recorded using the following instruments: 1. UV-Vis spectra were recorded on a Perkin Elmer Lamda 25 instrument. […]
Use nm as the unit, but write only the number.

// query Recorded λ Em of Cl.N[C@@H](Cc1ccc2[nH]c3ccccc3c2c1)C(=O)O [amino acid 13a] , please.
// result 352

// query May I ask what λ Em has been recorded for COc1ccc2c(c1)[nH]c1ccc(C[C@H](N)C(=O)O)cc12.Cl [amino acid 13b] ?
// result 357

// query λ Em lookup needed for Cl.N[C@@H](Cc1ccc2[nH]c3ccc4ccccc4c3c2c1)C(=O)O [amino acid 13c] , thanks.
// result 377

// query What does the data say about its λ Em? Entry: Cl.N[C@@H](Cc1ccc2[nH]c3cc(C(F)(F)F)ccc3c2c1)C(=O)O [amino acid 13e]
// result 380

* * *

- procedure.text: Fluorescence quantum yield (comparative method, anthracene and L-tryptophan standards) and brightness
- Format: physicochemical
- test.conditions: Water; anthracene and L-tryptophan as standards; five concentrations, absorption below 0.1
measured.parameter: Φ F (quantum yield)
Enter the number alone.

// query So what's the measured Φ F (quantum yield) for this one? Cl.N[C@@H](Cc1ccc2[nH]c3cc(C(F)(F)F)ccc3c2c1)C(=O)O [amino acid 13e]
// result 0.24

// query Name the reported Φ F (quantum yield) value associated with the compound Cl.N[C@@H](Cc1ccc2[nH]c3ccccc3c2c1)C(=O)O [amino acid 13a]
// result 0.28

// query What Φ F (quantum yield) value was documented for this compound, Cl.N[C@@H](Cc1ccc2[nH]c3ccc4ccccc4c3c2c1)C(=O)O [amino acid 13c] ?
// result 0.59

// query I would be grateful if you could share the reported Φ F (quantum yield) for COc1ccc2c(c1)[nH]c1ccc(C[C@H](N)C(=O)O)cc12.Cl [amino acid 13b] .
// result 0.43

* * *

- procedure.text: UV-Vis absorption and fluorescence emission spectra of amino acids 13a–e
- Format: physicochemical
- test.conditions: MeOH
measured.parameter: ε (molar attenuation coefficient)

// query Please report the recorded ε (molar attenuation coefficient) for Cl.N[C@@H](Cc1ccc2[nH]c3cc(C(F)(F)F)ccc3c2c1)C(=O)O [amino acid 13e] .
// result 11 600 cm^−1 M^−1

// query Recorded ε (molar attenuation coefficient) of Cl.N[C@@H](Cc1ccc2[nH]c3ccccc3c2c1)C(=O)O [amino acid 13a] , please.
// result 16 500 cm^−1 M^−1

// query Can you share its ε (molar attenuation coefficient)? I mean this molecule: Cl.N[C@@H](Cc1ccc2[nH]c3ccc4ccccc4c3c2c1)C(=O)O [amino acid 13c]
// result 16 100 cm^−1 M^−1

// query State the recorded ε (molar attenuation coefficient) for this entry: COc1ccc2c(c1)[nH]c1ccc(C[C@H](N)C(=O)O)cc12.Cl [amino acid 13b]
// result 12 700 cm^−1 M^−1

* * *

- procedure.text: UV-Vis absorption and fluorescence emission spectra of amino acids 13a–e
- Format: physicochemical
- test.conditions: MeOH; 5 μM; fluorescence
measured.parameter: λ Em
# do not omit the unit; it follows the number

// query # λ Em lookup, item Cl.N[C@@H](Cc1ccc2[nH]c3cc(C(F)(F)F)ccc3c2c1)C(=O)O [amino acid 13e]
// result 365 nm

// query Recorded λ Em of COc1ccc2c(c1)[nH]c1ccc(C[C@H](N)C(=O)O)cc12.Cl [amino acid 13b] , please.
// result 354 nm

// query Fill in the blank: the reported λ Em of Cl.N[C@@H](Cc1ccc2[nH]c3ccc4ccccc4c3c2c1)C(=O)O [amino acid 13c] is ____.
// result 371 nm

// query # get_value(readout='λ Em', item= Cl.N[C@@H](Cc1ccc2[nH]c3ccccc3c2c1)C(=O)O [amino acid 13a] )
// result 350 nm

The origin of these recorded values is paper PMC11040653.
